Biological target: UniProt:Q12809
Sequence (Q12809 whole entry): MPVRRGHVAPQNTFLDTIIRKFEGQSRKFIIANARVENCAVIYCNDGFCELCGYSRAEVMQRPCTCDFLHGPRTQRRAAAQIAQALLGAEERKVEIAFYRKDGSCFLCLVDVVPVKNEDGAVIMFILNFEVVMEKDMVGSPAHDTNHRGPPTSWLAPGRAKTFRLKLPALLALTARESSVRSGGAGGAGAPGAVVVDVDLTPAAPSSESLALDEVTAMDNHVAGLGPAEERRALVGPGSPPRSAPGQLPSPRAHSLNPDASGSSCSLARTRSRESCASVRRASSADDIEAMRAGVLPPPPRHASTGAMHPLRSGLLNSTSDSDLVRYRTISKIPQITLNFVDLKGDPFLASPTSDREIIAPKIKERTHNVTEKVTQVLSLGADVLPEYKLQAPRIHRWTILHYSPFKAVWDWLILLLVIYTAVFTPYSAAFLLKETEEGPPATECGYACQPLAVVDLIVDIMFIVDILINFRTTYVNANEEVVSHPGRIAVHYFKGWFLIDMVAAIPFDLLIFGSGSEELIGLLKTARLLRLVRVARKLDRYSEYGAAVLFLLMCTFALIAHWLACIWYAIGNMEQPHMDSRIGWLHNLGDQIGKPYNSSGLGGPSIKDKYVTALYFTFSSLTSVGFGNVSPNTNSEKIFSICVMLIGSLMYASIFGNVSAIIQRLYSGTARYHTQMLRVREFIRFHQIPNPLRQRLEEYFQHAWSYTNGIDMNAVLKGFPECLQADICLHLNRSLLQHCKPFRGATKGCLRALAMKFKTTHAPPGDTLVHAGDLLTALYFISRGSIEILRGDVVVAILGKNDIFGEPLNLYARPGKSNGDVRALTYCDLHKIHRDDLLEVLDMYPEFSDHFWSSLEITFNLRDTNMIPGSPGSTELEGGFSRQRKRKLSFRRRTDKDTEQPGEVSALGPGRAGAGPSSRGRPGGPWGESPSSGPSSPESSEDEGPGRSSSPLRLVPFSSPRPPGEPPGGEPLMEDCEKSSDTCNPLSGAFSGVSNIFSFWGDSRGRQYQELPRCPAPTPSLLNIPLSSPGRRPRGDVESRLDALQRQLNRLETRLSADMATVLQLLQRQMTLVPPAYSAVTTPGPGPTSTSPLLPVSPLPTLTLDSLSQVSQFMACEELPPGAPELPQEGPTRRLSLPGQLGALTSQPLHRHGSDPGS
Assay: Displacement of [3H]dofetilide from human ERG at 10 uM
Conditions: probe [3H]dofetilide
result_type: inhibition at 10 µM (%)
Reply numerically in %, unit not repeated.

The cases that follow already have their inhibition at 10 µM on record.
>>> obs_value("CN1CCC(NC(=O)c2cnc(NCc3cc(Cl)ccc3Cl)nc2NC2CCCC2)CC1")
47
>>> obs_value("O[C@@H]1COC[C@H]1Nc1nc(Nc2cc(Cl)cc(Cl)c2)ncc1-c1ccc(F)cc1")
2.7
>>> obs_value("Cc1cc(-c2cnc(Nc3cc(Cl)cc(Cl)c3)nc2NC2CCNCC2)on1")
1.3
>>> obs_value("COc1ccccc1CNc1ncc(C(=O)NCCNC(C)=O)c(NC2CCCC2)n1")
35
>>> obs_value("COc1ccccc1CNc1ncc(C(=O)NC2CCN(C)CC2)c(NC2CCCC2)n1")
27

Problem: Query: inhibition at 10 µM; subject: CC[C@@H](CO)Nc1nc(Nc2cc(Cl)cc(Cl)c2)ncc1C(=O)NC1CCN(C)CC1
Result: 3.4

Problem: Need inhibition at 10 µM, item COc1ccccc1CNc1ncc(C(=O)NCCCO)c(NC2CCCC2)n1
Result: 35

Problem: Form field: reported inhibition at 10 µM of COc1ccccc1CNc1ncc(C(=O)NCCCN2CCCC2=O)c(NC2CCCC2)n1
Result: 7

Problem: So what's the measured inhibition at 10 µM for this one? CN1CCC(NC(=O)c2cnc(Nc3cc(Cl)cc(Cl)c3)nc2NC2CCC(N(C)C)CC2)CC1 (stereo unspecified)
Result: 6.7
